The reported measurements were obtained from ChEMBL document CHEMBL3576867.

# Tested on: SW480
# experiment: Cytotoxicity against human SW480 cells assessed as growth inhibition after 48 hrs by Cell-Titer-Glo assay
# Type: functional, cell-based
# condition info: SW480, 48 h
measure: IC50

Report IC50 from SW480 testing of `C=C1CCC[C@H]2[C@](C)(CC3=C(O)C(=O)C=C(OCC)C3=O)[C@@H](C)CC[C@@]12C` 3.24 µM

----------
# Test system: HCT-116
# experiment: Cytotoxicity against human HCT116 cells assessed as growth inhibition after 48 hrs by Cell-Titer-Glo assay
# Format: functional, cell-based
# condition info: HCT-116, 48 h
measure: IC50 (nM)
Enter your answer as a number in nM; do not include the unit.

Give the value of IC50 reported for the following: `C=C1CCC[C@H]2[C@](C)(CC3=C(O)C(=O)C=C(OCC)C3=O)[C@@H](C)CC[C@@]12C` 2950
